// reported self-cleavage kobs at 640 uM GlcN6P per item
B1: glmS ribozyme (parent)
chain: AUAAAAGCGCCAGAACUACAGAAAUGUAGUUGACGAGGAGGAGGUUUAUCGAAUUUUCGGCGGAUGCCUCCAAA

variants of: B1; assay: self-cleavage kobs at 640 uM GlcN6P; higher = faster cleavage; RNA array; details: with glucosamine-6-phosphate
Variants at the floor of the assay were thinned out.
QUANTITY_KIND: self-cleavage kobs at 640 uM GlcN6P (s⁻¹)

                              chain_sequence                        quantity_kind  limit_qualifier  recorded_measurement
 0  AUAAAAGCGCCAGAACUACAGAAAUGUAGUUGACGAGGAGGAGGUUUAUCGAGUUAUCGGCGGAUGCCUCCAAA  self-cleavage kobs at 640 uM GlcN6P                =               0.00273
 1  AUAAAAGCGCCAGAACUACAGAAAUGUAGUUGACGAGUAGGAGGUUUAUCGAAUUUUCGGCGGUUGCCUGCAAA  self-cleavage kobs at 640 uM GlcN6P                =              8.06e-05
 2  AUAAAAGCUCCAGAACUACAGAAAUGUAGUUGACGAGGAGGAGGUUUAUCGAAUUAUCGGCGUUUGCCUCCAAA  self-cleavage kobs at 640 uM GlcN6P                <                 1e-05
 3  AUAAAAGCGCCAGAACUACAGAAAUGUAAUUGACGAGGAGGACGUUUAUCGAAUUUUCGGCGGAUGCCUCCAAA  self-cleavage kobs at 640 uM GlcN6P                <                 1e-05
 4  AUAAAAGCGACAGAACUACAGAAAUGUAGUUGACGAGGACGAGGUUUAUCGAAUUUUCGGCGGAUGCCUCCAAA  self-cleavage kobs at 640 uM GlcN6P                <                 1e-05
 5  AUAAAAGCGCCAGAGCUACAGAAAUGUAGUUGACGAGGAGGAGGUUUAUCGAAUUUUCGGCGAAUGCCGCCAAA  self-cleavage kobs at 640 uM GlcN6P                =              0.000141
 6  AUAAAAGCGCCAGAAUUACAGAAAUGUACUUGACGAGGAGGAGGUUUAUCGAAUUUUCGGCGGAUGCCUCCAAA  self-cleavage kobs at 640 uM GlcN6P                =               0.00244
 7  AUAAAAGCGCCAGAACUACAGAAAUGUAGUUGACGAGGAGGAGGUUUUUCGAAUUUUCGUCGGAUGCCUCCAAA  self-cleavage kobs at 640 uM GlcN6P                <                 1e-05
 8  AUAAAAGCGCCAGAACUACAGAAAUGUAGUUGACGAGGAGGAGGUACAUCGAAUUUUCGGCGGAUGCCUACAAA  self-cleavage kobs at 640 uM GlcN6P                =              9.01e-05
 9  AUAAAAGCGCCAGAACUACAGAAAUGUAGUUGACGAGGAGUAGGUUUAUCGAAUUUUCGGAGGAUGCCUCCAAA  self-cleavage kobs at 640 uM GlcN6P                <                 1e-05
10  AUAAAAGCGCCAGAACUACAGAAAUGUAGUUGACGAGGAGGAGGUUUAUCGAUUCUUCGGCGGAAGCCUCCAAA  self-cleavage kobs at 640 uM GlcN6P                =               0.00055
11  AUAAAAGCGCCAGAACUACAGAAAUGUAGUUGACGAGGAGGAGGUUUAUCGGAUUUUCGGCGGAUACCUCCAAA  self-cleavage kobs at 640 uM GlcN6P                =              0.000162
12  AUAAAAGCACCAGAACUACAGAAAUGUAGUUGACGAGGAGUAGGUUUAUCGAAUUUUCGGCGGAUGCCUCCAAA  self-cleavage kobs at 640 uM GlcN6P                <                 1e-05
13  AUAAAAGCGCCAGAACUACAGAAAUGUAGCUGACGAGGAGGAGGUUUCUCGAAUUUUCGGCGGAUGCCUCCAAA  self-cleavage kobs at 640 uM GlcN6P                <                 1e-05
14  AUAAAAGCGCCAGAACUACAGAAAUGUAGUUGAGGAGGAGGAGGUUUAUCAAAUUUUCGGCGGAUGUCUCCAAA  self-cleavage kobs at 640 uM GlcN6P                <                 1e-05
15  AUAAAAGCGCCAGAACUACAGAAAUGUAGUUGACCAGGAGGAGGUUUAUCGAAUUUUCUGUGGAUGCCUCCAAA  self-cleavage kobs at 640 uM GlcN6P                <                 1e-05
16  AUAAAAGCGCCAGUACUACAGAAAUGUAAUUGACGAGGAGGAGGUUUAUCGAAUUUUCGGCGGAUGCCUCCAAA  self-cleavage kobs at 640 uM GlcN6P                =              0.000137
17  AUAAACGCGCCAGAACUACAGAAAUGUAGUUGACGAGGAGAAGGUUUAUCGAAUUUUCGGCGGAUGCACCCAAA  self-cleavage kobs at 640 uM GlcN6P                <                 1e-05
18  AUAAAAGCGCCAGAGCUACAGAAAUGUAGUUGACGAGGAGGAGGUUUAUCGAAUUUUCGGCGCAUGCCUCCAAA  self-cleavage kobs at 640 uM GlcN6P                <                 1e-05
19  AUAAAAGCGCCAGAACUACAGAAAUGUAGUUGAUGAGGAGGAGAUUUUUCGAAUUAUCGACGGAUGCCUCCAAA  self-cleavage kobs at 640 uM GlcN6P                <                 1e-05
20  AUAAAGGCGCCAGAACUACAGAAAUGUAGUUGACGAAGAGGAGGUAUAUCGAAAUUUCGGCGGAUGCCUCCAAA  self-cleavage kobs at 640 uM GlcN6P                <                 1e-05
21  AUAAAAGCGCCAGAGCUACAGAAAUGUAGUUGACGAGGAGGAGGUUUAUCGAAUUUUCGGCGGAUGCUUCCAAA  self-cleavage kobs at 640 uM GlcN6P                =               0.00112
